Biological target: Glutathione S-transferase Mu 1 (Homo sapiens, UniProt P09488)
Sequence (P09488 whole entry): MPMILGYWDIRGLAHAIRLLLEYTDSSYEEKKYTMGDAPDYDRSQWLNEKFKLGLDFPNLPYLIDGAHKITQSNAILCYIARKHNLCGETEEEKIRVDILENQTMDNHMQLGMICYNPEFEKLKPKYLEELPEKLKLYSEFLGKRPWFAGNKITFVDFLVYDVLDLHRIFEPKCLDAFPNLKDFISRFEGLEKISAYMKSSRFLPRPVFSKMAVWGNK
Test: Inhibitory activity was measured on recombinant human Glutathione-S-transferase M1a enzyme
pKi: −log10 of the molar value.

COMPOUND	ASSAYED_SYSTEM	pKi
NC(CCC(=O)NC(CSCc1ccc(Cl)cc1)C(=O)NC(C(=O)O)c1ccccc1)C(=O)O (stereo unspecified)	Glutathione S-transferase Mu 1 (Homo sapiens, UniProt P09488)	4.82
